src = ChEMBL document CHEMBL1145830

# Test system: Granta
# assay.method.text: Inhibitory concentration against Granta lymphoma cancer cell line
# Type: functional, cell-based
# settings: Homo sapiens
recorded.metric: IC50 (nM)

{"columns": ["smiles.notation", "target.under.test", "IC50 [nM]"],
 "data": [
  ["COc1cc2c(c3oc4c(O)cccc4c(=O)c13)C[C@H]([C@@]1(C)CO1)O2", "Granta", 40]
]}

1. N[C@H]1CCN(c2c(F)cc3c(=O)c(C(=O)O)cn4c3c2Oc2ccccc2-4)C1
2. C[C@]1([C@H]2Cc3ccc4c(c3O2)-n2cc(C(=O)O)c(=O)c3cc(F)c(N5CC[C@H](N)C5)c(c32)O4)CO1
3. C[C@@](O)(CCl)[C@H]1Cc2ccc3c(c2O1)-n1cc(C(=O)O)c(=O)c2cc(F)c(N4CC[C@H](N)C4)c(c21)O3
Problem: Please give the order of these compounds when sorted by IC50, largest value leading. Respond with the label ranking, as requested.
Solution: 1, 2, 3
(1: 90 nM, 2: 4 nM, 3: 2 nM)

* * *

# Test system: HT-29
# assay.method.text: Inhibitory concentration against HT-29 colon cancer cell line
# Format: functional, cell-based
# settings: Homo sapiens
pIC50: −log10 of the molar value.
recorded.metric: pIC50

Check out these entries, answers already filled in.
{"columns": ["smiles.notation", "pIC50"],
 "data": [
  ["C[C@@](O)(CCl)[C@H]1Cc2ccc3c(c2O1)-n1cc(C(=O)O)c(=O)c2cc(F)c(N4CC[C@H](N)C4)c(c21)O3", 7.05],
  ["COc1cc2c(c3oc4c(O)cccc4c(=O)c13)C[C@H]([C@@]1(C)CO1)O2", 5.95]
]}

A. N[C@H]1CCN(c2c(F)cc3c(=O)c(C(=O)O)cn4c3c2Oc2ccccc2-4)C1
B. C[C@]1([C@H]2Cc3ccc4c(c3O2)-n2cc(C(=O)O)c(=O)c3cc(F)c(N5CC[C@H](N)C5)c(c32)O4)CO1
Problem: Given the entries A and B , determine which has the lower reported pIC50. Pick one; state its label.
Solution: A
